Cited source for all entries: ChEMBL document CHEMBL1137387

target: Kappa-type opioid receptor (Cavia porcellus, UniProt P41144)
Sequence (P41144 whole entry): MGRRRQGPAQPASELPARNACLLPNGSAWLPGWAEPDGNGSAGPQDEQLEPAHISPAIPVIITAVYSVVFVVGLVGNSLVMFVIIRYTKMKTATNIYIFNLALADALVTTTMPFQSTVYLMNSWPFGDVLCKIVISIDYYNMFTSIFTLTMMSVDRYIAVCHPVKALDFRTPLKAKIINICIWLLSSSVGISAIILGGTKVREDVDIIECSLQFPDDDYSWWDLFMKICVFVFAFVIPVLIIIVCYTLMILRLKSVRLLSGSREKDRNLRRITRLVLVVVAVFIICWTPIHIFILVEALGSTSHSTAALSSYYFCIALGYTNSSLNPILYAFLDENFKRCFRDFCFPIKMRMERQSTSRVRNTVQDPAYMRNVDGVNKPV
Give measured Ki for each item. Keep answers brief.
One number for each entry, in nM.

Sample records with Ki:
INSERT INTO results (chem_smiles, target, measure_unit, readout_value) VALUES
  ('COc1ccc2c3c1O[C@H]1C(=O)CC[C@@]4(NCCCc5ccc(Cl)cc5)[C@@H](C2)N(CC2CC2)CC[C@]314', 'Kappa-type opioid receptor (Cavia porcellus, UniProt P41144)', 'nM', 78.6),
  ('O=C(CCc1ccc(Cl)cc1)N[C@@]12CCC(=O)[C@@H]3Oc4c(O)ccc5c4[C@@]31CCN(CC1CC1)[C@@H]2C5', 'Kappa-type opioid receptor (Cavia porcellus, UniProt P41144)', 'nM', 0.65),
  ('O=C1CC[C@@]2(NCCCc3ccc(Cl)cc3)[C@H]3Cc4ccc(O)c5c4[C@@]2(CCN3CC2CC2)[C@H]1O5', 'Kappa-type opioid receptor (Cavia porcellus, UniProt P41144)', 'nM', 1.9);

Could you report Ki for every entry in the following list?
1. COc1ccc2c3c1O[C@H]1C(=O)CC[C@@]4(NC(=O)CCc5ccc(Cl)cc5)[C@@H](C2)N(CC2CC2)CC[C@]314
2. COc1ccc2c3c1O[C@H]1C(=O)CC[C@@]4(NC/C=C/c5ccc(Cl)cc5)[C@@H](C2)N(CC2CC2)CC[C@]314

Found:
1. 6.5
2. 53.6
